Parameter: pIC50. Scope: all listed entries.
# TARGET SYSTEM: UniProt Q9NWZ3
# EXPERIMENTAL DETAILS: IRAK4 kinase activity, IMAP fluorescence polarization assay
# Format: biochemical
# CONDITION INFO: 100 μM ATP, 0.5 nM GST tagged IRAK4; read-out: IRAK4 IC50
Where a name gives a salt, the structure may show the parent alone.
Interpret pIC50 as the negative base-10 log of the concentration measured in mol/L.

{"columns": ["COMPOUND", "TEST VALUE"],
 "data": [
  ["CS(=O)(=O)N1CCC(Nc2nc(N[C@@H]3C[C@H](CO)[C@@H](O)[C@H]3O)c(-c3nc4ccccc4s3)c(=O)[nH]2)CC1 [Example 10]", 6.26],
  ["CN(C)c1nc(N[C@@H]2C[C@H](CO)[C@@H](O)[C@H]2O)c(-c2nc3ccccc3s2)c(=O)[nH]1 [Example 30]", 6.27],
  ["O=c1[nH]c(N2CCOCC2)nc(N[C@@H]2CCCNC2)c1-c1nc(C2CC2)cs1 [Example 100]", 6.36],
  ["CC(C)(C)c1ccc2sc(-c3c(N[C@@H]4CCCNC4)nc(N4CCOCC4)[nH]c3=O)nc2c1 [Example 342]", 5.89],
  ["CC(C)(O)[C@H]1C[C@@H](Nc2nc(NC3CCC3)[nH]c(=O)c2-c2nc3ccccc3s2)[C@H](O)[C@@H]1O [Example 45]", 7.19]
]}

In the following, a different compound is considered.
Problem: Item COCCCNc1nc(N[C@@H]2C[C@H](CO)[C@@H](O)[C@H]2O)c(-c2nc3ccccc3s2)c(=O)[nH]1 [Example 40, HCl] has what recorded pIC50?
Solution: 7.22

---

Parameter: pIC50. Scope: all listed entries.
# TARGET SYSTEM: UniProt:Q9NWZ3
# EXPERIMENTAL DETAILS: IRAK4 kinase activity, IMAP fluorescence polarization assay
# Assay type: biochemical
# CONDITION INFO: 100 μM ATP; read-out: IRAK4 IC50
Interpret pIC50 as the negative base-10 log of the concentration measured in mol/L.

# annotated cases, reported pIC50 shown
{"columns": ["MOLECULE", "pIC50"],
 "data": [
  ["CS(=O)(=O)C1CN(c2nc(N[C@@H]3CCCNC3)c(-c3ccc4ccccc4n3)c(=O)[nH]2)C1 [Example 169]", 7.49],
  ["O=c1[nH]c(N2CCC(c3ccccc3)CC2)nc(N[C@@H]2CCCNC2)c1-c1ccc2ccccc2n1 [Example 187]", 7.80],
  ["O=c1[nH]c(N2CCOCC2)nc(N[C@@H]2CCCNC2)c1-c1nc2ccccc2o1 [Example 196]", 5.74]
]}

Problem: Give recorded pIC50 with UniProt:Q9NWZ3 for the following molecule: CN1CCC2CCN(c3nc(N[C@@H]4CCCNC4)c(-c4ccc5ccccc5n4)c(=O)[nH]3)C2C1 (stereo partly drawn) [Example 185]
Solution: 6.07

Problem: Give recorded pIC50 with UniProt:Q9NWZ3 for the following molecule: O=c1[nH]c(N2CCOCC2CO)nc(N[C@@H]2CCCNC2)c1-c1nc2ccccc2s1 (stereo partly drawn) [Example 125]
Solution: 6.06

Problem: Give recorded pIC50 with UniProt:Q9NWZ3 for the following molecule: COc1ccc(N2CCN(c3nc(N[C@@H]4CCCNC4)c(-c4nc5ccccc5s4)c(=O)[nH]3)CC2)cc1 [Example 154]
Solution: 8.00

Problem: Give recorded pIC50 with UniProt:Q9NWZ3 for the following molecule: Cn1cc(N2CCN(c3nc(N[C@@H]4CCCNC4)c(-c4nc5ccccc5s4)c(=O)[nH]3)CC2)cn1 [Example 159]
Solution: 7.70

Problem: Give recorded pIC50 with UniProt:Q9NWZ3 for the following molecule: O=c1[nH]c(N2CC[C@H](CO)C2)nc(N[C@@H]2CCCNC2)c1-c1ccc2ccccc2n1 [Example 180]
Solution: 7.82

Problem: Give recorded pIC50 with UniProt:Q9NWZ3 for the following molecule: COc1cccc(N2CCN(c3nc(N[C@@H]4CCCNC4)c(-c4nc5ccccc5s4)c(=O)[nH]3)CC2)n1 [Example 143]
Solution: 8.00

Problem: Give recorded pIC50 with UniProt:Q9NWZ3 for the following molecule: O=c1[nH]c(N2CCOC(CCO)C2)nc(N[C@@H]2CCCNC2)c1-c1nc2ccccc2s1 (stereo partly drawn) [Example 129]
Solution: 7.24

Problem: Give recorded pIC50 with UniProt:Q9NWZ3 for the following molecule: O=c1[nH]c(N2CCC(O)C2)nc(N[C@@H]2CCCNC2)c1-c1ccc2ccccc2n1 (stereo partly drawn) [Example 167]
Solution: 7.70

Problem: Give recorded pIC50 with UniProt:Q9NWZ3 for the following molecule: O=c1[nH]c(N2CCN(c3cnccn3)CC2)nc(N[C@@H]2CCCNC2)c1-c1nc2ccccc2s1 [Example 134]
Solution: 8.10

Problem: Give recorded pIC50 with UniProt:Q9NWZ3 for the following molecule: Cc1cnccc1N1CCN(c2nc(N[C@@H]3CCCNC3)c(-c3nc4ccccc4s3)c(=O)[nH]2)CC1 [Example 158]
Solution: 8.10

Problem: Give recorded pIC50 with UniProt:Q9NWZ3 for the following molecule: O=c1[nH]c(N2C[C@H](F)[C@@H](F)C2)nc(N[C@@H]2CCCNC2)c1-c1ccc2ccccc2n1 [Example 175]
Solution: 7.77

Problem: Give recorded pIC50 with UniProt:Q9NWZ3 for the following molecule: O=c1[nH]c(N2CCOCC2)nc(N[C@@H]2CCCNC2)c1-c1nc(-c2cc(F)ccc2F)cs1 [Example 205]
Solution: 7.05

---

Parameter: IC50. Scope: all listed entries.
# TARGET SYSTEM: IRAK4 (Homo sapiens (Human), UniProt Q9NWZ3)
# Sequence (Q9NWZ3 whole entry): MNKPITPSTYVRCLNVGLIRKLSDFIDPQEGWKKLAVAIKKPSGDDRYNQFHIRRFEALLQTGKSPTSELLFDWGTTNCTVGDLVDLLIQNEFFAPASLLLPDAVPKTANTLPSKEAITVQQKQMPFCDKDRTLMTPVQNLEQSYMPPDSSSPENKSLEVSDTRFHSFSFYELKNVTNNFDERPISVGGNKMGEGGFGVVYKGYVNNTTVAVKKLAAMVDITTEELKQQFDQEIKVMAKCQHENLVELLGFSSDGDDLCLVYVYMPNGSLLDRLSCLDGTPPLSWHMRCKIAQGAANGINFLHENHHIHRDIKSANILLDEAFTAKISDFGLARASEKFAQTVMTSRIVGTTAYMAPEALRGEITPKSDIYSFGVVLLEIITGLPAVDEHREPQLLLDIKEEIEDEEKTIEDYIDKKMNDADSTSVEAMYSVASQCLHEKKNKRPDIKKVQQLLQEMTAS
# EXPERIMENTAL DETAILS: IRAK4 kinase activity, IMAP fluorescence polarization assay
# Assay type: biochemical
# CONDITION INFO: unit inferred; 100 μM ATP; read-out: IRAK4 IC50
Kindly provide the numeric value in nM only, without the unit symbol.

# annotated cases, reported IC50 shown
{"columns": ["COMPOUND", "UNIT TEXT", "IC50"],
 "data": [
  ["CC(=O)NCC1CCN(c2nc(N[C@@H]3C[C@H](CO)[C@@H](O)[C@H]3O)c(-c3nc4ccccc4s3)c(=O)[nH]2)CC1 [Example 79]", "nM", 36.7],
  ["CS(=O)(=O)N1CCCN(c2nc(N[C@@H]3C[C@H](CO)[C@@H](O)[C@H]3O)c(-c3nc4ccccc4s3)c(=O)[nH]2)CC1 [Example 77]", "nM", 225],
  ["O=c1[nH]c(N2CCC(c3ccncc3)CC2)nc(N[C@@H]2C[C@H](CO)[C@@H](O)[C@H]2O)c1-c1nc2ccccc2s1 [Example 72]", "nM", 19],
  ["O=c1[nH]c(N2CCC(c3cncnc3)CC2)nc(N[C@@H]2C[C@H](CO)[C@@H](O)[C@H]2O)c1-c1nc2ccccc2s1 [Example 64]", "nM", 6.2]
]}

Problem: Give recorded IC50 with IRAK4 (Homo sapiens (Human), UniProt Q9NWZ3) for the following compound: O=c1[nH]c(N2CCC(c3ccccn3)C2)nc(N[C@@H]2C[C@H](CO)[C@@H](O)[C@H]2O)c1-c1nc2ccccc2s1 (some centres unmarked) [Example 82]
Solution: 197

---

# TARGET SYSTEM: IRAK4 (Homo sapiens (Human), UniProt Q9NWZ3)
# EXPERIMENTAL DETAILS: IRAK4 kinase activity, IMAP fluorescence polarization assay
# Format: biochemical
# CONDITION INFO: 100 μM ATP, 0.5 nM GST tagged IRAK4; read-out: IRAK4 IC50
READOUT NAME: IC50 (nM)
Kindly provide the numeric value in nM only, without the unit symbol.

# annotated cases, reported IC50 shown
{"columns": ["COMPOUND", "TARGET SYSTEM", "IC50 / nM"],
 "data": [
  ["O=c1[nH]c(N2CCOCC2)nc(N[C@@H]2CCCNC2)c1-c1nc2cnccc2s1", "IRAK4 (Homo sapiens (Human), UniProt Q9NWZ3)", 12],
  ["C[C@H]1C[C@@H](Nc2nc(N3CCOCC3)[nH]c(=O)c2-c2ccc3ccccc3n2)[C@H](O)[C@@H]1O", "IRAK4 (Homo sapiens (Human), UniProt Q9NWZ3)", 5],
  ["O=c1[nH]c(N[C@@H]2C[C@H](CO)[C@@H](O)[C@H]2O)c(-c2nc3ccccc3s2)c(=O)[nH]1", "IRAK4 (Homo sapiens (Human), UniProt Q9NWZ3)", 1490]
]}

Problem: Item O=c1[nH]c(NC2CCC2)nc(N[C@@H]2C[C@H](CO)[C@@H](O)[C@H]2O)c1-c1ccccn1 has what recorded IC50?
Solution: 590

Problem: Item N[C@@H]1CCCC[C@H]1Nc1cccc2sc(-c3c(N[C@@H]4CCCNC4)nc(N4CCOCC4)[nH]c3=O)nc12 (racemic) has what recorded IC50?
Solution: 5400

Problem: Item CC(C)[C@H]1C[C@@H](Nc2nc(N3CCC(c4cncnc4)CC3)[nH]c(=O)c2-c2nc3ccccc3s2)[C@H](O)[C@@H]1O has what recorded IC50?
Solution: 23

Problem: Item O=c1[nH]c(N2CCN(c3cccnc3)CC2)nc(N[C@@H]2CCCNC2)c1-c1nc(-c2ccc(F)cc2)cs1 has what recorded IC50?
Solution: 20

Problem: Item O=c1[nH]c(NC2CCC2)nc(N[C@@H]2C[C@H](CO)[C@@H](O)[C@H]2O)c1-c1ccc2ccccc2n1 has what recorded IC50?
Solution: 19
